- SYSTEM_TESTED: T1, extracellular domain of human BCMA (human, UniProt Q02223 1-54)
- T1 construct: amine-linked to Octet AR2G tips; also called hsBCMA; BCMA (human)
- T1 sequence: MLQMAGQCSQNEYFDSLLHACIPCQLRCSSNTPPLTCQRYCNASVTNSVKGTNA
- EXPERIMENT_DESCRIPTION: Octet BLI; Fab 200 nM
RESULT_TYPE: pKd
FYI, pKd means -log10 of a concentration in mol per litre.

Exercise: I'd like to know its pKd. The binder in question is AB200-R1a-Fab_VH56 (Fab, V domains shown) VH: QVQLVQSGAEVKKPGSSVKVSCKASGGTFSNYWIHWVRQAPGQGLEWMGATYRGHSDTYYNQKFRGRVTITADKSTSTAYMELSSLRSEDTAVYYCARGTIYHGYDVLDNWGQGTLVTVSS VL: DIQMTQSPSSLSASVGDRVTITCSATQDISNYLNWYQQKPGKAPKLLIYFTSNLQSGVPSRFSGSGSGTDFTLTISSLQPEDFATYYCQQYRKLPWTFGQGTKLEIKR
Solution: 7.68

Exercise: Lookup AB200-R1a-Fab_VH40 (Fab, V domains shown) VH: QVQLVQSGAEVKKPGSSVKVSCKASGGTFSNFWMHWVRQAPGQGLEWMGATYRGHSDTYYNHKFKGRVTITADKSTSTAYMELSSLRSEDTAVYYCARGAIYHGYDVLENWGQGTLVTVSS VL: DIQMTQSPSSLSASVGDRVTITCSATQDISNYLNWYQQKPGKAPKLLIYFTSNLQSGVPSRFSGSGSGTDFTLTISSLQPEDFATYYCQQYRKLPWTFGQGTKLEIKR
Solution: 7.76

Exercise: Same read-out for AB200-R1a-Fab_VH34 (Fab, V domains shown) VH: QVQLVQSGAEVKKPGSSVKVSCKASGGTFSNYYLHWVRQAPGQGLEWMGATYRGHSDTYYNQKFKGRVTITADKSTSTAYMELSSLRSEDTAVYYCARGAIYNGYDVLDNWGQGTLVTVSS VL: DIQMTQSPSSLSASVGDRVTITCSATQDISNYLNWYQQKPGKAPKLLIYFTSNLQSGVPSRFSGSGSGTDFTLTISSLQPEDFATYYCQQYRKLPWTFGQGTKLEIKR ?
Solution: 7.72
